B1: Osa-1-4 twister ribozyme (parent)
chain: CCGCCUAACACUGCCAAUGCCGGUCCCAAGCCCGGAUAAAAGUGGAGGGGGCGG

- Variants of: B1
- Measurement description: self-cleavage, relative activity (ratio to wild type); higher = more cleavage; co-transcriptional
Class t: self-cleavage at least 0.2. Class f: self-cleavage below 0.2.

{"Mutant id": "G54U U12A", "Class name": "t"}
{"Mutant id": "G48U U18C", "Class name": "f"}
{"Mutant id": "G34C G45C", "Class name": "f"}
{"Mutant id": "C25A G30A", "Class name": "f"}
{"Mutant id": "C52G U37C", "Class name": "t"}
{"Mutant id": "A17G A28G", "Class name": "t"}
{"Mutant id": "G49C G51U", "Class name": "f"}
{"Mutant id": "A28C G34A", "Class name": "t"}
{"Mutant id": "A8G G42A", "Class name": "f"}
{"Mutant id": "C32A G22A", "Class name": "f"}
{"Mutant id": "C20U G51U", "Class name": "t"}
{"Mutant id": "A36U G50U", "Class name": "t"}
{"Mutant id": "G35C G45A", "Class name": "f"}
{"Mutant id": "A39C C33U", "Class name": "t"}
{"Mutant id": "A40U G48C", "Class name": "f"}
{"Mutant id": "C15A G19A", "Class name": "t"}
{"Mutant id": "A17U C11G", "Class name": "t"}
{"Mutant id": "A40G A7C", "Class name": "f"}
{"Mutant id": "G34C G54C", "Class name": "f"}
{"Mutant id": "C33G G22C", "Class name": "t"}
{"Mutant id": "A29U A8G", "Class name": "f"}
{"Mutant id": "A10C A36C", "Class name": "f"}
{"Mutant id": "A46C G51C", "Class name": "f"}
{"Mutant id": "A36G C11A", "Class name": "t"}
{"Mutant id": "U24C U43C", "Class name": "f"}
{"Mutant id": "A16U G22A", "Class name": "t"}
{"Mutant id": "A29G G44A", "Class name": "f"}
{"Mutant id": "G19C G34U", "Class name": "f"}
{"Mutant id": "C31G C32A", "Class name": "f"}
{"Mutant id": "G44U G51C", "Class name": "f"}
{"Mutant id": "G22U U24A", "Class name": "f"}
{"Mutant id": "A40G G54U", "Class name": "t"}
{"Mutant id": "A10U U24C", "Class name": "f"}
{"Mutant id": "A46C G53C", "Class name": "f"}
{"Mutant id": "A16U C21A", "Class name": "t"}
{"Mutant id": "A10U A46G", "Class name": "f"}
{"Mutant id": "A17U G42U", "Class name": "t"}
{"Mutant id": "A28C G44U", "Class name": "t"}
{"Mutant id": "A16G A39U", "Class name": "t"}
{"Mutant id": "G50C G51C", "Class name": "f"}
{"Mutant id": "A38U G51C", "Class name": "f"}
{"Mutant id": "C11A C25U", "Class name": "f"}
{"Mutant id": "G13U U43A", "Class name": "f"}
{"Mutant id": "A10G G54A", "Class name": "t"}
{"Mutant id": "G45C G49U", "Class name": "f"}
{"Mutant id": "A10C G45A", "Class name": "f"}
{"Mutant id": "C33A U24G", "Class name": "f"}
{"Mutant id": "A29U G42A", "Class name": "f"}
{"Mutant id": "C26G U18A", "Class name": "f"}
{"Mutant id": "C20G G54C", "Class name": "f"}
{"Mutant id": "C26A G49U", "Class name": "f"}
{"Mutant id": "A39C U43G", "Class name": "f"}
{"Mutant id": "C21U U24C", "Class name": "t"}
{"Mutant id": "G23U G47U", "Class name": "f"}
{"Mutant id": "C26A G48A", "Class name": "f"}
{"Mutant id": "G48C G51U", "Class name": "f"}
{"Mutant id": "A38C G22A", "Class name": "t"}
{"Mutant id": "A7U G13C", "Class name": "f"}
{"Mutant id": "C21U C27A", "Class name": "f"}
{"Mutant id": "C11A C9G", "Class name": "f"}
{"Mutant id": "C11U G45U", "Class name": "f"}
{"Mutant id": "C14G C52G", "Class name": "f"}
{"Mutant id": "A39C G53A", "Class name": "t"}
{"Mutant id": "G30U G54C", "Class name": "f"}
{"Mutant id": "G30U U43C", "Class name": "f"}
{"Mutant id": "A10G C14G", "Class name": "f"}
{"Mutant id": "G47U G53C", "Class name": "f"}
{"Mutant id": "C32U G48A", "Class name": "f"}
{"Mutant id": "G34C G48U", "Class name": "f"}
{"Mutant id": "G13U G35C", "Class name": "f"}
{"Mutant id": "A28U C14A", "Class name": "f"}
{"Mutant id": "U18C U24C", "Class name": "t"}
{"Mutant id": "C27G G13A", "Class name": "f"}
{"Mutant id": "C14G C21A", "Class name": "f"}
{"Mutant id": "G22C G42U", "Class name": "f"}
{"Mutant id": "G42A U18G", "Class name": "t"}
{"Mutant id": "G23C G51C", "Class name": "f"}
